Molecular target: T1, CRBN, Q96SW2;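 note: pooled lentiviral library of zinc finger degron-EGFP fusions in mCherry-positive Jurkat cells, FACS-sorted after compound exposure, with degron abundance counted by next-generation sequencing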
T1 chain: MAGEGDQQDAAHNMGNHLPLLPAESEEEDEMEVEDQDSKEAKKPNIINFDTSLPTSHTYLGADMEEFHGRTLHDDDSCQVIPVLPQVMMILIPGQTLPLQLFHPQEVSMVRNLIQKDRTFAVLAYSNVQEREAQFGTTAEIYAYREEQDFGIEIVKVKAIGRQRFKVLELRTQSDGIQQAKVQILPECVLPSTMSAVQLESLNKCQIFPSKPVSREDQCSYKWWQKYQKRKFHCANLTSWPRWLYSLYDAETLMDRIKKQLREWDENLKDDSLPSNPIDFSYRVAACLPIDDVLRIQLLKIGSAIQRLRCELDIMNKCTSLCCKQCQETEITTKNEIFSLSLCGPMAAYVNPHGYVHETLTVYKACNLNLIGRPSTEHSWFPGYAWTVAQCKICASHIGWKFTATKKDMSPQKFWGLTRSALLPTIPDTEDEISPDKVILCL
Assay: log2 fold change of degron read counts, EGFP-low vs EGFP+ sorted cells (limma voom), compound-induced degradation; higher = more compound-induced degradation of the degron-EGFP fusion; degrons are variants of IKZF1/3 zinc finger 2; compound dose not given here
Conditions: Jurkat; 18 h; compound: compound 19 (5-tert-butyl-thalidomide)
Over roughly 8,300 sequences, “log2 fold change of degron read counts, EGFP-low vs EGFP+ sorted cells (limma voom), compound-induced degradation” has its median near -1.1; the highest 2% begin near 3.2. What follows is part of a selection rich in the highest values, with near analogues and random picks from the rest.
measurement-type: log2 fold change of degron read counts
Simply state the number, no unit and no words.

INSERT INTO assay_data (macromolecule_sequence, measured_value) VALUES
  ('FECPVCGADFTQKGNLLRHIKL [46F_47E_49P_50V_52G_53A_54D_55F_67L_, Q9UKT9]', -1.59);

Exam item: Field request: log2 fold change of degron read counts | item: FYCNICGAQFTQKGNLLRHIKL [46F_47Y_49N_50I_52G_53A_54Q_55F_67L_, Q9UKT9]
Marked response: 2.24

Exam item: Field request: log2 fold change of degron read counts | item: LMCEICGFFCTQKGNLLRHIKL [46L_47M_49E_50I_52G_53F_54F_55C_67L_, Q9UKT9]
Marked response: -0.461

Exam item: Field request: log2 fold change of degron read counts | item: FYCEICGHEFTQKGNLLRHIKL [46F_47Y_49E_50I_52G_53H_54E_55F_67L_, Q9UKT9]
Marked response: -2.18

Exam item: Field request: log2 fold change of degron read counts | item: FWCNICGAQFTQKGNLLRHIKL [46F_47W_49N_50I_52G_53A_54Q_55F_67L_, Q9UKT9]
Marked response: 2.02

Exam item: Field request: log2 fold change of degron read counts | item: FFCDQCGAEFTQKGNLLRHIKL [46F_47F_49D_50Q_52G_53A_54E_55F_67L_, Q9UKT9]
Marked response: -0.653

Exam item: Field request: log2 fold change of degron read counts | item: LHCEICGFQCTQKGNLLRHIKL [46L_47H_49E_50I_52G_53F_54Q_55C_67L_, Q9UKT9]
Marked response: 2.39
